Can you tell me viability at 72 h, 10 µM for the items I'm about to list?
assay-procedure: Cytotoxicity against human NHDF cells assessed as cell viability at 10 uM incubated for 72 hrs by CellTiter-Glo luminescence based assay
measurement-setup: read-out: Activity
Answers are plain numbers, in %.

Known results for compounds:
line_notation=O=C(/N=c1\s[nH]c(=O)n1C[C@H](O)COC(c1ccccc1)(c1ccccc1)c1ccccc1)c1ccccc1 measure="viability at 72 h, 10 µM" assay_result=98
line_notation=CC(C)OP(=O)(COCCn1sc(NC(=O)c2ccccc2)nc1=O)OC(C)C measure="viability at 72 h, 10 µM" assay_result=103
line_notation=CN(C)/C=N/c1nc(OC[C@H](O)COC(c2ccccc2)(c2ccccc2)c2ccccc2)ns1 measure="viability at 72 h, 10 µM" assay_result=97
line_notation=Nc1nc(OCCOCP(=O)(O)O)ns1 measure="viability at 72 h, 10 µM" assay_result=105

Continue with the compound presented below.
Consider the compound shown here: O=C(Nc1nc(=O)n(CCOCP(=O)(O)O)s1)OCC1c2ccccc2-c2ccccc21 What is its recorded viability at 72 h, 10 µM?
93

###

Test system: HepG2
assay-procedure: Cytotoxicity against human HepG2 cells assessed as cell viability at 10 uM incubated for 72 hrs by CellTiter-Glo luminescence based assay
Type: functional
measurement-setup: read-out: Activity
measure: viability at 10 µM (%)
Answers are plain numbers, in %.

Known results for compounds:
compound=CC(=O)Nc1nc(=O)[nH]s1 unit_descriptor=% assay_result=103
compound=O=C(Nc1nc(=O)n(CCOCP(=O)(O)O)s1)OCC1c2ccccc2-c2ccccc21 unit_descriptor=% assay_result=105
compound="O=c1sn(-c2cccc3ccccc23)c(=O)n1Cc1ccccc1 [TIDEGLUSIB]" unit_descriptor=% assay_result=92
compound=O=C(Nc1nc(=O)n(C[C@@H](CO)OCP(=O)(O)O)s1)OCC1c2ccccc2-c2ccccc21 unit_descriptor=% assay_result=106
compound=O=C(Nc1nc(=O)n(CCOCP(=O)(O)O)s1)c1ccccc1 unit_descriptor=% assay_result=100
compound=CN(C)/C=N/c1nc(=O)[nH]s1 unit_descriptor=% assay_result=97
compound=Nc1nc(OCCOCP(=O)(O)O)ns1 unit_descriptor=% assay_result=97
compound=Nc1nc(=O)[nH]s1 unit_descriptor=% assay_result=87

Consider the compound shown here: CCOC(=O)Nc1nc(=O)n(CCOCP(=O)(O)O)s1 What is its recorded viability at 10 µM?
98

###

assay-procedure: Cytotoxicity against human NHDF cells assessed as cell viability at 100 uM incubated for 72 hrs by CellTiter-Glo luminescence based assay
measurement-setup: read-out: Activity
Can you tell me viability at 72 h, 100 µM for the items I'm about to list?
Hi, when you answer, please include the unit after the number. Thanks!

Known results for compounds:
line_notation=O=C(Nc1nc(=O)n(CCOCP(=O)(O)O)s1)OCC1c2ccccc2-c2ccccc21 assay_result=84%
line_notation=CCOC(=O)Nc1nc(=O)n(C[C@@H](CO)OCP(=O)(OC(C)C)OC(C)C)s1 assay_result=100%
line_notation=CC(C)OP(=O)(COCCOc1nsc(N)n1)OC(C)C assay_result=114%
line_notation=CC(C)OP(=O)(CO[C@H](CO)Cn1sc(NC(=O)OCC2c3ccccc3-c3ccccc32)nc1=O)OC(C)C assay_result=100%
line_notation=O=C(Nc1nc(=O)n(C[C@@H](CO)OCP(=O)(O)O)s1)OCC1c2ccccc2-c2ccccc21 assay_result=95%
line_notation=Nc1nc(OCCOCP(=O)(O)O)ns1 assay_result=96%
line_notation=O=C(Nc1nc(=O)n(CCOCP(=O)(O)O)s1)c1ccccc1 assay_result=102%
line_notation=CC(C)OP(=O)(CO[C@H](CO)Cn1sc(NC(=O)c2ccccc2)nc1=O)OC(C)C assay_result=104%

Give viability at 72 h, 100 µM for all compounds that follow.
1. CCOC(=O)Nc1nc(=O)n(C[C@@H](CO)OCP(=O)(O)O)s1
2. CC(C)OP(=O)(COCCOc1nsc(/N=C/N(C)C)n1)OC(C)C
3. O=C(Nc1nc(=O)n(C[C@@H](CO)OCP(=O)(O)O)s1)c1ccccc1
4. CCOC(=O)Nc1nc(=O)n(CCOCP(=O)(O)O)s1
5. CCOC(=O)Nc1nc(=O)n(CCOCP(=O)(OC(C)C)OC(C)C)s1

1. 99%
2. 99%
3. 98%
4. 97%
5. 98%

Give viability at 72 h, 100 µM for all compounds that follow.
1. CN(C)/C=N/c1nc(=O)n(C[C@H](O)COC(c2ccccc2)(c2ccccc2)c2ccccc2)s1
2. CC(=O)Nc1nc(=O)[nH]s1
3. CC(C)OP(=O)(COCCn1sc(NC(=O)c2ccccc2)nc1=O)OC(C)C
4. CN(C)/C=N/c1nc(=O)[nH]s1
5. O=C(Nc1nc(=O)[nH]s1)c1ccccc1
6. Nc1nc(=O)[nH]s1
7. CN(C)/C=N/c1nc(OC[C@H](O)COC(c2ccccc2)(c2ccccc2)c2ccccc2)ns1
8. O=C(/N=c1\s[nH]c(=O)n1C[C@H](O)COC(c1ccccc1)(c1ccccc1)c1ccccc1)c1ccccc1

["1%", "105%", "101%", "107%", "100%", "49%", "1%", "79%"]

###

Can you tell me pIC50 for the items I'm about to list?
target-under-test: Cathepsin K (Homo sapiens)
Sequence (P43235 whole entry): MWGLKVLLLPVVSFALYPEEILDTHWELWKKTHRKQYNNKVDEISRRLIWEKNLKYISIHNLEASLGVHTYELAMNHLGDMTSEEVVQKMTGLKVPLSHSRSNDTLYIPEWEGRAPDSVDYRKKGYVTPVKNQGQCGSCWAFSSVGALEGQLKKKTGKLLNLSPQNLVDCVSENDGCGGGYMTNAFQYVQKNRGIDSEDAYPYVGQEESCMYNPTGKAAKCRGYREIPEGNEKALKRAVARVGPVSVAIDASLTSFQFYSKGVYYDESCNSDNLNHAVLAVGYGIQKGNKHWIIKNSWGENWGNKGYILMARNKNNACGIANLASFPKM
assay-procedure: Inhibition of recombinant human Cathepsin K expressed in Pichia pastoris X-33 using Z-Gly-Pro-Arg-AMC as substrate preincubated for 10 mins followed by substrate addition measured after 30 mins by fluorescence based microplate reader assay
Numbers only, as −log10 of the molar value.

Known results for compounds:
line_notation=Nc1nc(=O)[nH]s1 assay_result=5.20
line_notation=CCOC(=O)Nc1nc(=O)n(CCOCP(=O)(O)O)s1 assay_result=4.99
line_notation=CN(C)/C=N/c1nc(=O)n(C[C@H](O)COC(c2ccccc2)(c2ccccc2)c2ccccc2)s1 assay_result=5.00

Give pIC50 for all compounds that follow.
1. O=C(/N=c1\s[nH]c(=O)n1C[C@H](O)COC(c1ccccc1)(c1ccccc1)c1ccccc1)c1ccccc1
2. CC(C)OP(=O)(CO[C@H](CO)Cn1sc(NC(=O)OCC2c3ccccc3-c3ccccc32)nc1=O)OC(C)C
3. CN(C)/C=N/c1nc(OC[C@H](O)COC(c2ccccc2)(c2ccccc2)c2ccccc2)ns1

4.83
5.03
5.58

###

assay-procedure: Cytotoxicity against human NHDF cells assessed as cell viability at 10 uM incubated for 72 hrs by CellTiter-Glo luminescence based assay
measurement-setup: read-out: Activity
Can you tell me viability at 72 h, 10 µM for the items I'm about to list?
Give bare numbers, in %.

Known results for compounds:
compound=O=C(Nc1nc(=O)n(CCOCP(=O)(O)O)s1)c1ccccc1 assay_result=103
compound="O=c1sn(-c2cccc3ccccc23)c(=O)n1Cc1ccccc1 [TIDEGLUSIB]" assay_result=57
compound=O=C(Nc1nc(=O)[nH]s1)c1ccccc1 assay_result=104
compound=CC(C)OP(=O)(COCCOc1nsc(N)n1)OC(C)C assay_result=104
compound=CCOC(=O)Nc1nc(=O)n(C[C@@H](CO)OCP(=O)(OC(C)C)OC(C)C)s1 assay_result=104
compound=CC(C)OP(=O)(CO[C@H](CO)Cn1sc(NC(=O)OCC2c3ccccc3-c3ccccc32)nc1=O)OC(C)C assay_result=98
compound=CC(C)OP(=O)(CO[C@H](CO)Cn1sc(NC(=O)c2ccccc2)nc1=O)OC(C)C assay_result=103
compound=CN(C)/C=N/c1nc(=O)n(C[C@H](O)COC(c2ccccc2)(c2ccccc2)c2ccccc2)s1 assay_result=77
compound="Cc1cnc(-c2cnc(NCCNc3ccc(C#N)cn3)nc2-c2ccc(Cl)cc2Cl)[nH]1 [LADUVIGLUSIB]" assay_result=53
compound=CCOC(=O)Nc1nc(=O)n(CCOCP(=O)(OC(C)C)OC(C)C)s1 assay_result=101

Give viability at 72 h, 10 µM for all compounds that follow.
1. CN(C)/C=N/c1nc(=O)[nH]s1
2. CC(=O)Nc1nc(=O)[nH]s1

105
99

###

Tested on: HepG2
assay-procedure: Cytotoxicity against human HepG2 cells assessed as cell viability at 10 uM incubated for 72 hrs by CellTiter-Glo luminescence based assay
Assay type: functional
measurement-setup: read-out: Activity
Can you tell me viability at 10 µM for the items I'm about to list?
Answers are plain numbers, in %.

line_notation=CC(C)OP(=O)(CO[C@H](CO)Cn1sc(NC(=O)OCC2c3ccccc3-c3ccccc32)nc1=O)OC(C)C measure="viability at 10 µM" assay_result=102
line_notation=CCOC(=O)Nc1nc(=O)n(CCOCP(=O)(OC(C)C)OC(C)C)s1 measure="viability at 10 µM" assay_result=104
line_notation=CC(C)OP(=O)(COCCOc1nsc(/N=C/N(C)C)n1)OC(C)C measure="viability at 10 µM" assay_result=99
line_notation=CC(C)OP(=O)(COCCOc1nsc(N)n1)OC(C)C measure="viability at 10 µM" assay_result=100

Continue with the compound presented below.
Consider the compound shown here: CN(C)/C=N/c1nc(OC[C@H](O)COC(c2ccccc2)(c2ccccc2)c2ccccc2)ns1 What is its recorded viability at 10 µM?
92
